# target entity: T1, corticotropin releasing factor 2 receptor
# T1 sequence (Q13324 whole entry, species assumed, looked up): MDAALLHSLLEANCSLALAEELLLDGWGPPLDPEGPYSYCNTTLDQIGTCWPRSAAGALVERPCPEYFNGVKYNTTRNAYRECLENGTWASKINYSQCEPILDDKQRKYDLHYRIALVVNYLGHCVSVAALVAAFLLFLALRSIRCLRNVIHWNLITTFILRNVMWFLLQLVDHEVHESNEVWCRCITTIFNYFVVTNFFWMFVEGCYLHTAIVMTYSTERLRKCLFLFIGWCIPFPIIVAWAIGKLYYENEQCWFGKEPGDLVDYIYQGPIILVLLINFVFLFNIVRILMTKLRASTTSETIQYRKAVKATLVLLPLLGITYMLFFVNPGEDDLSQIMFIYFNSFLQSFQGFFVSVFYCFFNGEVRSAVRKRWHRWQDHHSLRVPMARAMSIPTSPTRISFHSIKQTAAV
# run description: cell-based or functional assay
Ends that are not written are not given here.
The binders listed here are annotated with their CRF2R Emax %.

[
  {
    "binder": "IVLSLDVPIGLLQILLEQARARAAREQATTNARILARV (ends and bridges not checked) [human urocortin II fragment]",
    "CRF2R Emax % / %": 98
  },
  {
    "binder": "DNPSLSIDLTFHLLRTLLELARTQSQRERAEQNRIIFDSV (ends and bridges not checked) [human urocortin I fragment]",
    "CRF2R Emax % / %": 100
  },
  {
    "binder": "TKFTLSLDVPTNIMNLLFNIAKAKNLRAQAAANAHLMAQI (ends and bridges not checked) [human urocortin III fragment]",
    "CRF2R Emax % / %": 60
  },
  {
    "binder": "SEEPPISLDLTFHLLREVLEMARAEQLAQQAHSNRKLMEII (ends and bridges not checked) [human corticotropin releasing factor fragment]",
    "CRF2R Emax % / %": 100
  },
  {
    "binder": "SQEPPISLDLTFHLLREVLEMTKADQLAQQAHSNRKLLDIA (ends and bridges not checked) [ovine corticotropin releasing factor fragment]",
    "CRF2R Emax % / %": 33
  }
]
